// pIC50 lookup, one value per entry
Target: Tyrosine-protein kinase JAK3 [512-1124] (Homo sapiens, UniProt P52333)
Sequence (P52333 whole entry): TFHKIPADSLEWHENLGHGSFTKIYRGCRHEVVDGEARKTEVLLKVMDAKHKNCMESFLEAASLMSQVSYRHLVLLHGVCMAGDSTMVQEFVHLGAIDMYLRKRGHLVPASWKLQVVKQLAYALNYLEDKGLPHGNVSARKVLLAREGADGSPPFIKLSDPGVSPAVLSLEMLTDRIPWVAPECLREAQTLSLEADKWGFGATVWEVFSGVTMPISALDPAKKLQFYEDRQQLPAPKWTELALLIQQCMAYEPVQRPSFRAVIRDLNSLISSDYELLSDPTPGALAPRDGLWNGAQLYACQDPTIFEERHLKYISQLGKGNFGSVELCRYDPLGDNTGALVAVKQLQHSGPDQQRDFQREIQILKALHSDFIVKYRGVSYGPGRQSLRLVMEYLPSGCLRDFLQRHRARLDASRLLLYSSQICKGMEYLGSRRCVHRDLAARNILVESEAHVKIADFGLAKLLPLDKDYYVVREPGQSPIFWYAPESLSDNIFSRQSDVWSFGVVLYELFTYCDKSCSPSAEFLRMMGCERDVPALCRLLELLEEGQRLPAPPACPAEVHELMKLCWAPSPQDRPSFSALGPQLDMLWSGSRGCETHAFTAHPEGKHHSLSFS
pIC50: −log10 of the molar value.

- COMPOUND: "N#CCC1CCC(n2c(CC(=O)NC3CCOCC3)nc3cnc4[nH]ccc4c32)CC1 (stereo not drawn) [US11066406, Ex. 5]"
  pIC50: 7.64
- COMPOUND: "N#CC[C@H]1CC[C@H](n2c(CC(=O)NCC3CC3)nc3cnc4[nH]ccc4c32)CC1 [US11066406, Ex. 3]"
  pIC50: 7.08
- COMPOUND: "N#CCC1CCC(n2c(CC(=O)NCC3(O)CCC3)nc3cnc4[nH]ccc4c32)CC1 (stereo not drawn) [US11066406, Ex. 8]"
  pIC50: 7.12

* * *

# collection of IC50 values tested on Tyrosine-protein kinase JAK3 [512-1124] (Homo sapiens)

- COMPOUND: "CC(C)(C#N)CNC(=O)Cc1nc2cnc3[nH]ccc3c2n1C1CCC(CC#N)CC1 (stereo not drawn)"
  SYSTEM_TESTED: "Tyrosine-protein kinase JAK3 [512-1124] (Homo sapiens)"
  UNIT_INFO: "nM"
  IC50: 98.4
- COMPOUND: "N#CCC1CCC(n2c(CC(=O)NCC3(O)CC3)nc3cnc4[nH]ccc4c32)CC1 (stereo not drawn)"
  SYSTEM_TESTED: "Tyrosine-protein kinase JAK3 [512-1124] (Homo sapiens)"
  UNIT_INFO: "nM"
  IC50: 101
- COMPOUND: "N#CCC1(n2c(CC(=O)NCC3CCOCC3)nc3cnc4[nH]ccc4c32)CCCCC1"
  SYSTEM_TESTED: "Tyrosine-protein kinase JAK3 [512-1124] (Homo sapiens)"
  UNIT_INFO: "nM"
  IC50: 28.2
- COMPOUND: "N#CCC1CCC(n2c(CC(=O)Nc3cc[nH]n3)nc3cnc4[nH]ccc4c32)CC1 (stereo not drawn)"
  SYSTEM_TESTED: "Tyrosine-protein kinase JAK3 [512-1124] (Homo sapiens)"
  UNIT_INFO: "nM"
  IC50: 30.3
- COMPOUND: "N#CCCNC(=O)Cc1nc2cnc3[nH]ccc3c2n1C1CCC(CC#N)CC1 (stereo not drawn)"
  SYSTEM_TESTED: "Tyrosine-protein kinase JAK3 [512-1124] (Homo sapiens)"
  UNIT_INFO: "nM"
  IC50: 96.2
- COMPOUND: "CC(C)(O)CNC(=O)Cc1nc2cnc3[nH]ccc3c2n1C1CCC(CC#N)CC1 (stereo not drawn)"
  SYSTEM_TESTED: "Tyrosine-protein kinase JAK3 [512-1124] (Homo sapiens)"
  UNIT_INFO: "nM"
  IC50: 92.2
- COMPOUND: "Cn1cc(NC(=O)Cc2nc3cnc4[nH]ccc4c3n2C2CCC(CC#N)CC2)cn1 (stereo not drawn)"
  SYSTEM_TESTED: "Tyrosine-protein kinase JAK3 [512-1124] (Homo sapiens)"
  UNIT_INFO: "nM"
  IC50: 79.9
- COMPOUND: "N#CCC1CCC(n2c(CC(=O)NC34CCC(CC#N)(CC3)C4)nc3cnc4[nH]ccc4c32)CC1 (stereo not drawn)"
  SYSTEM_TESTED: "Tyrosine-protein kinase JAK3 [512-1124] (Homo sapiens)"
  UNIT_INFO: "nM"
  IC50: 87.5
